Hey, just so you know, these numbers are from paper PMC5540273.

- System: DAPK1
- measurement.setup: concentration: 1 μM, replicates: in singlicate; n = 1;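 further: KINOMEscan kinase panel screen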
%Inh values for the molecules below.
# number only, unit % dropped from output

structure.as.smiles | property.measured | unit.tag | value
Cl.Oc1ccc(-c2nc(-c3ccccc3)[nH]c2-c2ccncc2)cc1 | %Inh | % | 3
O=C(Nc1n[nH]c2nc(-c3nccs3)c(Br)cc12)C1CCCC1 | %Inh | % | 0

Give its %Inh value. Item: Cn1ccc2ncnc(Oc3cccc(C(=O)Nc4ccccc4)c3)c21
20

Another molecule to check: Cc1ccc(C(=O)Nc2ccc(Nc3ccnc4cc(-c5ccccn5)ccc34)cc2O)cc1.Cl
0

What do you have for C[C@@H]1CCCCN1c1cc(-c2ccc3c(N)n[nH]c3c2)nc(N)n1 ?
18

* * *

Below: a set of entries, each annotated with reported %Inh.
- Tested on: YES
- Construct: gene YES1
- measurement.setup: concentration: 1 μM, replicates: in singlicate; n = 1
Use % as the unit, but write only the number.

Examples with answers:
compound | %Inh [%]
O=C1NC(=O)C(N2CCc3ccccc32)=C1c1ccccc1Cl | 10
CC1=C(C(=O)Nc2cc3cn[nH]c3cc2F)C(c2ccc(C(F)(F)F)cc2)CC(=O)N1 (stereo not shown) | 17
COC(=O)c1c(-c2ccccc2)c2cc(C(=O)O)ccc2c(=O)n1Cc1ccccc1 | 0
Cc1csc(-c2nc(Nc3ccncc3)c3ccccc3n2)n1 | 0
Fc1cc(Cl)ccc1Nc1ccnc2cc(I)ccc12 | 15

Param item = Cc1cccc(-c2nc(Nc3ccc4[nH]ncc4c3)c3ccccc3n2)n1 ; retrieve measured %Inh.
13

Entry to check: Cc1ccc(NC(=O)Nc2cccc(Cl)c2)cc1-c1ccc(C(=O)Nc2ccncc2)cc1
13

Also COc1cc2ncn(-c3cc(OCC4CCCO4)c(C(N)=O)s3)c2cc1OC (stereo not shown) ?
12

Could you do the same for Cl.NC(=O)c1cccc(Nc2nccc(Nc3ccc(Oc4cccc(Cl)c4)c(Cl)c3)n2)c1 , please?
54

Again, but for COc1ccc(CNC(=O)NC2CCN(c3ccnc(Nc4cc(OC)c(OC)c(OC)c4)n3)C2)cc1 (stereo not shown)
0

Please do the same for Clc1cc(Cl)cc(Nc2ccnc(Nc3cc(Cl)cc(Cl)c3)n2)c1 as well.
20

What would you report for COC(=O)c1c(-c2ccccc2)c2cc(OC)ccc2c(=O)n1Cc1ccccc1 ?
0

Another compound to look at: O=C(Nc1ccccc1)Nc1cccc(Oc2ccc3nccn3n2)c1
0

Try COc1cc(Nc2nccc(N3CCC(NC(=O)Nc4cc(C)ccc4C)C3)n2)cc(OC)c1OC (stereo not shown) next.
10

What would you report for COc1cccc(NC(=O)NC2CCN(c3ccnc(Nc4ccc(F)cc4)n3)C2)c1 (stereo not shown) ?
0

// repeat for Cl.Oc1ccc(-c2nc(-c3ccccc3)[nH]c2-c2ccncc2)cc1 and report
17

Now give it for COc1ccc(Nc2nccc(-c3cccc(NC(=O)c4cc5cc(F)ccc5[nH]4)c3)n2)cc1 too.
29

What do you have for CCn1c(-c2ccccn2)nc2cnccc21 ?
3

Let us now turn to Cn1ccc2ncnc(Oc3ccc(NC(=O)Nc4ccccc4)cc3)c21
0

Can you check Nc1nc(-c2nccs2)c(-c2ccnc3ccccc23)s1 next?
17

Now the same for Cc1ccc(-c2cc(-c3c[nH]nc3-c3ccccn3)ccn2)cc1
17

Can you handle CC(C)(C)c1ccc(C(=O)Nc2cn3cc(Cl)ccc3n2)cc1 next?
0

Also check Cc1cccc(-c2nc(Nc3ccncc3)c3ccccc3n2)n1
0
